The entries below come with measured pIC50 values attached.
systemUnderTest: Caspase-1 (Homo sapiens, UniProt P29466)
Sequence (P29466 120-297 limits assumed): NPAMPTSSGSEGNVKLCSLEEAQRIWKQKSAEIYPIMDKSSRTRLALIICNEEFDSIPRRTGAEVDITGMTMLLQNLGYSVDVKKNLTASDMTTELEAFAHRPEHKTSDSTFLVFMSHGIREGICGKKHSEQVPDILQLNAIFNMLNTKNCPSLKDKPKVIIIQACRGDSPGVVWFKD
Sequence (P29466 317-404 limits assumed): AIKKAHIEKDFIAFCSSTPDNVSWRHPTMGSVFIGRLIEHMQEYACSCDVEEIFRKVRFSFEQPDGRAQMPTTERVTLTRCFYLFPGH
experimentalDetails: Inhibitory activity against recombinant human Caspase-1
Just the number, please; pIC50 means minus log10 of the concentration in mol/L.

Challenge: Which measured pIC50 value corresponds to CC(C)[C@H](NC(=O)Cc1ccccc1)C(=O)N[C@@H](CC(=O)O)C(=O)CSCc1ccccc1 ?
Response given: 4.67

Challenge: Which measured pIC50 value corresponds to COc1ccc(C(C)=O)cc1CC(=O)N[C@H](C(=O)N[C@@H](CC(=O)O)C(=O)CSCc1ccccc1)C(C)C ?
Response given: 5.21

Challenge: Which measured pIC50 value corresponds to CC(C)[C@H](NC(=O)C(C)(O)c1ccccc1)C(=O)N[C@@H](CC(=O)O)C(=O)CSCc1ccccc1 (some centres not stated) ?
Response given: 4.72

Challenge: Which measured pIC50 value corresponds to C#CC[C@@H](C(=O)N[C@H](C(=O)N[C@@H](CC(=O)O)C(=O)CSCc1ccccc1)C(C)C)c1cc(Br)ccc1OC (stereo in doubt; 14) ?
Response given: 5.99

Challenge: Which measured pIC50 value corresponds to CC(C)[C@H](NC(=O)C(O)c1ccccc1)C(=O)N[C@@H](CC(=O)O)C(=O)CSCc1ccccc1 (single isomer, unassigned) ?
Response given: 5.39

Challenge: Which measured pIC50 value corresponds to COc1ccc(Br)cc1CC(=O)N[C@H](C(=O)N[C@@H](CC(=O)O)C(=O)CSCc1ccccc1)C(C)C (stereo in doubt; 6) ?
Response given: 5.52

Challenge: Which measured pIC50 value corresponds to CC(C)[C@H](NC(=O)C(C)(C)O)C(=O)N[C@@H](CC(=O)O)C(=O)CSCc1ccccc1 ?
Response given: 4.74

Challenge: Which measured pIC50 value corresponds to CC(C)[C@H](O)C(=O)N[C@H](C(=O)N[C@@H](CC(=O)O)C(=O)CSCc1ccccc1)C(C)C ?
Response given: 5.52

Challenge: Which measured pIC50 value corresponds to COc1ccc(-c2nc(C)no2)cc1CC(=O)N[C@H](C(=O)N[C@@H](CC(=O)O)C(=O)CSCc1ccccc1)C(C)C ?
Response given: 5.26

Challenge: Which measured pIC50 value corresponds to CC(C)[C@H](NC(=O)[C@H](O)c1ccccc1)C(=O)N[C@@H](CC(=O)O)C(=O)CSCc1ccccc1 ?
Response given: 5.38

Others:
Challenge: Which measured pIC50 value corresponds to COc1ccc(OC)c(CC(=O)N[C@H](C(=O)N[C@@H](CC(=O)O)C(=O)CSCc2ccccc2)C(C)C)c1 ?
Response given: 5.15

Challenge: Which measured pIC50 value corresponds to CC(C)[C@H](NC(=O)C1(O)CC1)C(=O)N[C@@H](CC(=O)O)C(=O)CSCc1ccccc1 ?
Response given: 5.02

====

systemUnderTest: UniProt P42574
Sequence (P42574 whole entry): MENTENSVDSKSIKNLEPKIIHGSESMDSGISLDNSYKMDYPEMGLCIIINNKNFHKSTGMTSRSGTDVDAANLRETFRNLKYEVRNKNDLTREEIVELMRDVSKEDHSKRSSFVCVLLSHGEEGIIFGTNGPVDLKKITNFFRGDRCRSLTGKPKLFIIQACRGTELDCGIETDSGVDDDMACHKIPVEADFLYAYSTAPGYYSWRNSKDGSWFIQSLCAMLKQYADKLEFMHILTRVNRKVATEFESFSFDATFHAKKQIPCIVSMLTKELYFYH
experimentalDetails: Inhibitory activity against recombinant human Caspase-3
The entries below come with measured IC50 values attached.
The answer is to be given in nM; state only the numeric part.

Challenge: Which measured IC50 value corresponds to CO[C@H](C(=O)N[C@H](C(=O)N[C@@H](CC(=O)O)C(=O)CSCc1ccccc1)C(C)C)c1ccccc1 ?
Response given: 425

Challenge: Which measured IC50 value corresponds to CC(C)[C@H](NC(=O)C(C)(O)c1ccccc1)C(=O)N[C@@H](CC(=O)O)C(=O)CSCc1ccccc1 (some centres not stated) ?
Response given: 85

Challenge: Which measured IC50 value corresponds to CC(C)[C@H](NC(=O)C(O)c1ccccc1)C(=O)N[C@@H](CC(=O)O)C(=O)CSCc1ccccc1 (single isomer, unassigned) ?
Response given: 100

Challenge: Which measured IC50 value corresponds to C#CC[C@@H](C(=O)N[C@H](C(=O)N[C@@H](CC(=O)O)C(=O)CSCc1ccccc1)C(C)C)c1cc(Br)ccc1OC (stereo in doubt; 14) ?
Response given: 17

Challenge: Which measured IC50 value corresponds to CC(C)[C@H](NC(=O)[C@H](O)C(C)C)C(=O)N[C@@H](CC(=O)O)C(=O)CSCc1ccccc1 ?
Response given: 330

Challenge: Which measured IC50 value corresponds to C#CC[C@@H](C(=O)N[C@H](C(=O)N[C@@H](CC(=O)O)C(=O)CSCc1ccccc1)C(C)C)c1cc(Br)ccc1OC (stereo in doubt; 13) ?
Response given: 341

Field: next compound
Challenge: Which measured IC50 value corresponds to CC(C)[C@H](NC(=O)C(O)(C(F)(F)F)C(F)(F)F)C(=O)N[C@@H](CC(=O)O)C(=O)CSCc1ccccc1 ?
Response given: 146

====

systemUnderTest: Caspase-8 (Homo sapiens, UniProt Q14790)
Sequence (Q14790 217-374 limits assumed): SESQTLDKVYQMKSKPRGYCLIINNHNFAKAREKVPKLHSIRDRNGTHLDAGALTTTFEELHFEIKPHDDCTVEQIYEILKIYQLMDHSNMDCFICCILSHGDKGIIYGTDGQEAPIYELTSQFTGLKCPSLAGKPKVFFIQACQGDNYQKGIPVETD
Sequence (Q14790 385-479 limits assumed): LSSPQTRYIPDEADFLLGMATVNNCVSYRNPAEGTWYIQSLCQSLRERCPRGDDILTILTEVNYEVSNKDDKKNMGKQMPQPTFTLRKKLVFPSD
experimentalDetails: Inhibitory activity against recombinant human Caspase-8
pIC50: −log10 of the molar value.
quantity: pIC50

Before answering, review these 2 worked examples.
Challenge: Which measured pIC50 value corresponds to CC(C)[C@H](NC(=O)C(O)(C(F)(F)F)C(F)(F)F)C(=O)N[C@@H](CC(=O)O)C(=O)CSCc1ccccc1 ?
Response given: < 5.00

Challenge: Which measured pIC50 value corresponds to COc1ccc(Br)cc1[C@H](C(=O)N[C@H](C(=O)N[C@@H](CC(=O)O)C(=O)CSCc1ccccc1)C(C)C)C1CC1 ?
Response given: < 5.00

Others:
Challenge: Which measured pIC50 value corresponds to CC(C)[C@H](NC(=O)C(O)(c1ccccc1)c1ccccc1)C(=O)N[C@@H](CC(=O)O)C(=O)CSCc1ccccc1 ?
Response given: < 5.00

====

The entries below come with measured pIC50 values attached.
systemUnderTest: Caspase-3 (Homo sapiens, UniProt P42574)
experimentalDetails: Inhibitory activity against recombinant human Caspase-3
Just the number, please; pIC50 means minus log10 of the concentration in mol/L.

Challenge: Which measured pIC50 value corresponds to COc1ccc(-c2nc(C)no2)cc1CC(=O)N[C@H](C(=O)N[C@@H](CC(=O)O)C(=O)CSCc1ccccc1)C(C)C ?
Response given: 8.05

Challenge: Which measured pIC50 value corresponds to COc1ccc(C(C)=O)cc1CC(=O)N[C@H](C(=O)N[C@@H](CC(=O)O)C(=O)CSCc1ccccc1)C(C)C ?
Response given: 7.89

Challenge: Which measured pIC50 value corresponds to COc1ccc(Br)cc1CC(=O)N[C@H](C(=O)N[C@@H](CC(=O)O)C(=O)CSCc1ccccc1)C(C)C (stereo in doubt; 6) ?
Response given: 7.74

Challenge: Which measured pIC50 value corresponds to COc1ccc(Br)cc1CC(=O)N[C@H](C(=O)N[C@@H](CC(=O)O)C(=O)CSCc1ccccc1)C(C)C (stereo in doubt; 29) ?
Response given: 7.74

Field: next compound
Challenge: Which measured pIC50 value corresponds to CC(C)[C@H](NC(=O)C1(O)CC1)C(=O)N[C@@H](CC(=O)O)C(=O)CSCc1ccccc1 ?
Response given: 6.80

The measured values listed here are drawn from ChEMBL document CHEMBL1142798.
